# Test system: PPARg:RXRa 30nM:10nM, anti-RXR (NR concentration 30 nM, RXRa partner concentration 10 nM)
# assay_name: PBM binding z-score (relative to random genomic background probes); higher = stronger binding; sequences stand for … in GC…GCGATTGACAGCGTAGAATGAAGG

| sequence_chain | experimental_system | PBM binding z-score |
| --- | --- | --- |
| TGCCAAAGTTCAAAGGTAACGTAAGTATCCACAC | PPARg:RXRa 30nM:10nM, anti-RXR (NR concentration 30 nM, RXRa partner concentration 10 nM) | 4.42 |
| TAAATGAGGTTATAAGATCAGGGAACGTTGCAAA | PPARg:RXRa 30nM:10nM, anti-RXR (NR concentration 30 nM, RXRa partner concentration 10 nM) | 2.19 |
| GATACAGGGTCAGCTAGAGGCCAGACTATGGAAA | PPARg:RXRa 30nM:10nM, anti-RXR (NR concentration 30 nM, RXRa partner concentration 10 nM) | 1.29 |
| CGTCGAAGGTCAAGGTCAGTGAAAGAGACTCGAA | PPARg:RXRa 30nM:10nM, anti-RXR (NR concentration 30 nM, RXRa partner concentration 10 nM) | 2.48 |
| GCATATAGGTAATACAAGGTGTAAGTCCGATTGT | PPARg:RXRa 30nM:10nM, anti-RXR (NR concentration 30 nM, RXRa partner concentration 10 nM) | 0.405 |
| AGAATCAGGTTAAGATCAGGGAAACAGAATACAT | PPARg:RXRa 30nM:10nM, anti-RXR (NR concentration 30 nM, RXRa partner concentration 10 nM) | 0.692 |
| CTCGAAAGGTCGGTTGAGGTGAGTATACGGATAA | PPARg:RXRa 30nM:10nM, anti-RXR (NR concentration 30 nM, RXRa partner concentration 10 nM) | -0.156 |
| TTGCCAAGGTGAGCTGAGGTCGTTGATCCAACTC | PPARg:RXRa 30nM:10nM, anti-RXR (NR concentration 30 nM, RXRa partner concentration 10 nM) | -0.768 |
| GCAGACAGGTGATACGCAGGTAACTCAGGGTGGC | PPARg:RXRa 30nM:10nM, anti-RXR (NR concentration 30 nM, RXRa partner concentration 10 nM) | -0.33 |
| CGAGCTAGGTCAGAACAGGACAGTGAAGGATGAT | PPARg:RXRa 30nM:10nM, anti-RXR (NR concentration 30 nM, RXRa partner concentration 10 nM) | -0.277 |
| TCATATAGGCAATACAGGTGAAAGTCGGCATCTA | PPARg:RXRa 30nM:10nM, anti-RXR (NR concentration 30 nM, RXRa partner concentration 10 nM) | 3.62 |
| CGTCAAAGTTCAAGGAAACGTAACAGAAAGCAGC | PPARg:RXRa 30nM:10nM, anti-RXR (NR concentration 30 nM, RXRa partner concentration 10 nM) | 1.69 |
| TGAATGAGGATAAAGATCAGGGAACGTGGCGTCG | PPARg:RXRa 30nM:10nM, anti-RXR (NR concentration 30 nM, RXRa partner concentration 10 nM) | 2.17 |
| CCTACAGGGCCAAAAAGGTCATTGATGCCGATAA | PPARg:RXRa 30nM:10nM, anti-RXR (NR concentration 30 nM, RXRa partner concentration 10 nM) | 0.52 |
| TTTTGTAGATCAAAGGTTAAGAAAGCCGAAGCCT | PPARg:RXRa 30nM:10nM, anti-RXR (NR concentration 30 nM, RXRa partner concentration 10 nM) | 8.23 |
| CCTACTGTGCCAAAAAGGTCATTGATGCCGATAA | PPARg:RXRa 30nM:10nM, anti-RXR (NR concentration 30 nM, RXRa partner concentration 10 nM) | 1.41 |
| ATCTCTAGGTAAGCAAGTTCAGTGAATGCCGAAC | PPARg:RXRa 30nM:10nM, anti-RXR (NR concentration 30 nM, RXRa partner concentration 10 nM) | 0.367 |
| TCTTGTAGATCAACAGTAGGTTAAGAAAGATCGA | PPARg:RXRa 30nM:10nM, anti-RXR (NR concentration 30 nM, RXRa partner concentration 10 nM) | 2.78 |
| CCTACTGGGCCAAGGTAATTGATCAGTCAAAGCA | PPARg:RXRa 30nM:10nM, anti-RXR (NR concentration 30 nM, RXRa partner concentration 10 nM) | 0.0282 |
| TCGAGTAGGTTAACAATGGGGCATTCAGCTTTCT | PPARg:RXRa 30nM:10nM, anti-RXR (NR concentration 30 nM, RXRa partner concentration 10 nM) | 1.31 |
| AATACAGGGTCATCGTAAGCCAGAGTACGCACAG | PPARg:RXRa 30nM:10nM, anti-RXR (NR concentration 30 nM, RXRa partner concentration 10 nM) | 2.84 |
| AGAATGACGTTAAGATCAGGGAAACAGAATACAT | PPARg:RXRa 30nM:10nM, anti-RXR (NR concentration 30 nM, RXRa partner concentration 10 nM) | 0.359 |
| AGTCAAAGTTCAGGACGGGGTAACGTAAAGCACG | PPARg:RXRa 30nM:10nM, anti-RXR (NR concentration 30 nM, RXRa partner concentration 10 nM) | 2.19 |
| CGTACTGGGCCACGAAAGGTCATTGATTCAGTGA | PPARg:RXRa 30nM:10nM, anti-RXR (NR concentration 30 nM, RXRa partner concentration 10 nM) | 2.22 |
| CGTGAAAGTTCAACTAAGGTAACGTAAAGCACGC | PPARg:RXRa 30nM:10nM, anti-RXR (NR concentration 30 nM, RXRa partner concentration 10 nM) | 1.6 |
| ACTATTAGTTGAGACGAGGGCCACCGATAGGTTG | PPARg:RXRa 30nM:10nM, anti-RXR (NR concentration 30 nM, RXRa partner concentration 10 nM) | 0.0911 |
